Recorded values, source PubChem BioAssay (Tox21).

measured on: Estrogen receptor (Homo sapiens)
method summary: qHTS assay to identify small molecule agonists of the estrogen receptor alpha (ER-alpha) signaling pathway (AID 743075);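 note: HEK293 GripTite cells with ER-alpha and UAS-driven beta-lactamase reporter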
experimental parameters: HEK293 ER-alpha-UAS-bla, beta-lactamase FRET ratio, 18 h; series mostly up to 70.1 µM
Inconclusive results are not listed. Activity calls are given as the source filed them. Calls come from the whole dose curve. Positions of bridges follow the written chain, without caps; N, C: chain ends. Non-standard residues stand in square brackets, D forms with d. Residues, ends and D or L forms follow the SMILES beside them. *: point of attachment. Dab(CH2SO3H) = N[C@@H](CCNCS(=O)(=O)O)C(=O)O; X3 = CC[C@@H](C)CCCCC(=O)*; Dab = NCC[C@H](N)C(=O)O
observed property: outcome

input: Report outcome on Estrogen receptor (Homo sapiens) for this entry: CC[C@@H](C)CCCCC(=O)N[C@@H](CCNCS(=O)(=O)O)C(=O)N[C@H](C(=O)N[C@@H](CCNCS(=O)(=O)O)C(=O)N[C@H]1CCNC(=O)[C@H]([C@@H](C)O)NC(=O)[C@H](CCNCS(=O)(=O)O)NC(=O)[C@H](CCNCS(=O)(=O)O)NC(=O)[C@H](CC(C)C)NC(=O)[C@@H](CC(C)C)NC(=O)[C@H](CCNCS(=O)(=O)O)NC1=O)[C@@H](C)O (X3-[Dab(CH2SO3H)]T[Dab(CH2SO3H)][Dab][Dab(CH2SO3H)][dL]L[Dab(CH2SO3H)][Dab(CH2SO3H)]T; lactam 4-C)
output: inactive

input: Tell me its outcome on Estrogen receptor (Homo sapiens): CN[C@H](CC(C)C)C(=O)N[C@H]1C(=O)N[C@@H](CC(N)=O)C(=O)N[C@H]2C(=O)N[C@H]3C(=O)N[C@H](C(=O)N[C@@H](C(=O)O)c4cc(O)cc(O)c4-c4cc3ccc4O)[C@H](O)c3ccc(c(Cl)c3)Oc3cc2cc(c3O[C@@H]2O[C@H](CO)[C@@H](O)[C@H](O)[C@H]2O[C@H]2C[C@](C)(N)C(O)[C@H](C)O2)Oc2ccc(cc2Cl)[C@H]1O (some centres not stated)
output: inactive

###

method summary: qHTS assay to test for compound auto fluorescence at 535 nm (green) in HEK293 cell free culture (AID 720682)
experimental parameters: cell-free medium, green autofluorescence 485/535 nm; series mostly up to 46 µM
Calls of active or inactive are those of the source. Calls follow the shape of the dose curve; as a rule, active = well fitted curve in the direction sought with a large enough effect in the repeat runs; inconclusive = weak or mixed curves; inactive = flat fitted curve, though single readings scatter.
observed property: outcome

input: Return the recorded outcome value; entry: COc1cc(/C=C/C(=O)CC(=O)/C=C/c2ccc(O)c(OC)c2)ccc1O
output: inactive

input: Let me know recorded outcome for CCN(CC)CCNC(=O)c1ccc(NS(C)(=O)=O)cc1 , thanks.
output: inactive

input: Complete the entry with outcome for FC(F)(F)COCC(F)(F)F
output: inactive

input: Return the recorded outcome value; entry: COc1ccc(/C=C/C(=O)O)cc1
output: inactive

input: For CO[C@H](C(=O)[C@@H](O)[C@@H](C)O)C1Cc2cc3cc(O[C@H]4C[C@@H](O[C@H]5C[C@@H](O)[C@H](O)[C@@H](C)O5)[C@@H](O)[C@@H](C)O4)c(C)c(O)c3c(O)c2C(=O)[C@H]1O[C@H]1C[C@@H](O[C@H]2C[C@@H](O[C@H]3C[C@](C)(O)[C@H](O)[C@@H](C)O3)[C@H](O)[C@@H](C)O2)[C@H](O)[C@@H](C)O1 (some centres undefined) , write its outcome.
output: inactive

Value sought for every listed compound: outcome.
1. Cc1cc(-c2ccc(N=Nc3ccc4c(S(=O)(=O)O)cc(S(=O)(=O)O)c(N)c4c3O)c(C)c2)ccc1N=Nc1ccc2c(S(=O)(=O)O)cc(S(=O)(=O)O)c(N)c2c1O
2. COc1ccc2ccccc2c1
3. C[C@H](O)CN(C)C
4. C/C=C/C1=C(C(=O)O)N2C(=O)[C@@H](NC(=O)[C@H](N)c3ccc(O)cc3)[C@H]2SC1
5. NC(N)=NCc1cccc(I)c1
6. CCCOC(=O)c1ccccc1O
7. CC[C@H]1OC(=O)C[C@@H](O)[C@H](C)[C@@H](O[C@@H]2O[C@H](C)[C@@H](O[C@H]3C[C@@](C)(O)[C@@H](O)[C@H](C)O3)[C@H](N(C)C)[C@H]2O)[C@@H](CC=O)C[C@@H](C)C(=O)/C=C/C(C)=C/[C@@H]1CO[C@@H]1O[C@H](C)[C@@H](O)[C@@H](OC)[C@H]1OC

output:
1. inactive
2. inactive
3. inactive
4. inactive
5. inactive
6. inactive
7. inactive

// batch mode: one outcome value per listed entry
1. O=C1C2CC3CC1CC(O)(C3)C2
2. CC(Cc1ccc(O)c(O)c1)C(C)Cc1ccc(O)c(O)c1 (centres undefined)
3. CS(=O)(=O)c1ccc([C@@H](CC2CCCC2)C(=O)Nc2cnccn2)cc1Cl
4. O=C[C@H](O)[C@@H](O)[C@@H](O)[C@H](O)CO
5. CCCC(=O)c1cc(O)c(O)cc1O
6. C[C@@H]1O[C@@H](OC[C@H]2O[C@@H](Oc3c(-c4ccc(OCCO)c(OCCO)c4)oc4cc(OCCO)cc(O)c4c3=O)[C@H](O)[C@@H](O)[C@@H]2O)[C@H](O)[C@H](O)[C@H]1O

output:
1. inactive
2. inactive
3. inactive
4. inactive
5. inactive
6. inactive

input: For Cc1cc(=O)c(C(=O)N[C@@H](C(=O)N[C@@H]2C(=O)N3C(C(=O)O)=C(CSc4nnnn4C)CS[C@H]23)c2ccc(O)cc2)c[nH]1 , write its outcome.
output: inactive
